- EXPERIMENT: gradient 5% acetonitrile 3 min, to 50% in 2 min, to 85% in 15 min, held 3 min, 100 µL/min
- ASSAY CONDITIONS: column: Zorbax Extend-C18 2.1 x 50 mm; eluents: water / acetonitrile, 0.1% formic acid
Consider the following molecules and their measured RP-LC retention time readings.
ASSAY ENDPOINT: RP-LC retention time (s)

Cc1ccc(Nc2cc(C)nc(N3CCN(C(=O)Nc4ccccc4)CC3)n2)cc1	738
COCCNCc1ccc(-c2cccc(C(F)(F)F)c2)o1	662
COc1ncccc1C(=O)N1CCC(C(=O)Nc2cc(C)on2)CC1	622
Cc1cccc(NC(=O)C2CCN(C(=O)C3Sc4ccccc4NC3=O)CC2)c1 (centres undefined)	790
CN(C)c1ccc(CNC(=O)C2(c3ccc(NS(C)(=O)=O)cc3)CCCCC2)cc1	672
CCn1c(=O)c2ccccc2n(Cc2nc(-c3ccc4c(c3)OCO4)no2)c1=O	960
O=C(c1ccsc1)N1CCC(c2nncn2Cc2ccccc2)CC1	663
O=C(NCc1ccc2c(c1)OCO2)c1ccc(-c2cc(N3CCOCC3)ncn2)cc1	643
Cc1cc(C)cc(-n2c(SCC(=O)Nc3nc(C)cs3)nc3c(c2=O)SCC3)c1	825
CCc1nc(-c2csc(S(=O)(=O)N3CCCC(C(=O)Nc4nccs4)C3)c2)no1 (centres undefined)	884
COc1ccc(-c2cc(C(=O)N3CCOCC3)nn2C2CCS(=O)(=O)C2)cc1 (centres undefined)	704
CC(C)n1cnc(S(=O)(=O)N2CCC(C(=O)NCCC3=CCCCC3)CC2)c1	804
Cc1ccc(CNC(=O)Cn2cnc3nc(N4CCC(C(=O)NC5CC5)CC4)sc3c2=O)cc1	708
COc1ccc2c(C)c(CCC(=O)N[C@H](C(=O)O)c3ccccc3)c(=O)oc2c1	744
Cc1nc(-c2cc(S(=O)(=O)N3CCCCC3)c(C)n2C)sc1C	1140
Cc1cc(Nc2ccccc2)nc(N2CCN(C(=O)Nc3ccc(F)cc3)CC2)n1	696
CC(C)c1ccc(-c2nc(C3CC(=O)N(c4ccc(F)cc4)C3)no2)cc1 (centres undefined)	1180
NS(=O)(=O)c1ccc(CCNCc2ccc(-c3cc(Cl)ccc3Cl)o2)cc1	712
Cn1nccc1-c1cccc(-c2noc(-c3cc(Cl)ccc3F)n2)c1	1210

---

- EXPERIMENT: gradient 5% acetonitrile 3 min, to 50% in 2 min, to 85% in 15 min, held 3 min, 100 µL/min
- ASSAY CONDITIONS: column: Zorbax Extend-C18 2.1 x 50 mm; eluents: water / acetonitrile, 0.1% formic acid
Consider the following compounds and their measured RP-LC retention time readings.
ASSAY ENDPOINT: RP-LC retention time (s)

COc1cc(NC(=O)Cn2cccc2-c2nnc(C3CC3)o2)cc(OC)c1	802
CCN(CC)S(=O)(=O)c1ccc2nc(N3CCN(Cc4ccc5c(c4)OCO5)CC3)cnc2c1	685
O=C(c1ccccc1F)N1CCC(n2nc(-c3ccsc3)ccc2=O)CC1	783
O=c1oc2cc(O)cc(O)c2c2ccccc12	699
CCc1nc(N2CCC(C(=O)NCc3cc(OC)ccc3OC)CC2)c2c(C)scc2n1	691
Cc1ccc(S(=O)(=O)n2nc(OC(=O)c3ccc(Cl)cc3Cl)cc2N)cc1	1030
CCN(CC)C(=O)c1cnc2snc(C)c2c1N1CCC(C(=O)Nc2cc(F)ccc2F)CC1	940
C=CCn1c(=O)c2ccccc2n(Cc2nc(-c3ccc(SC)cc3)no2)c1=O	1100
CC(NC(=O)c1n[nH]c2ccccc12)C(=O)N1CCN(c2ccccn2)CC1 (centres undefined)	595
CC(C)Cn1c(=O)c(N2CCN(S(=O)(=O)c3ccccc3)CC2)nc2ccncc21	612
Cc1ccc(C)c(Cn2nc3ccc(S(=O)(=O)N4CCc5ccccc5C4)cn3c2=O)c1	1100
COc1cc(NC(=O)N2CCCC2c2nc(-c3ccccc3OC)no2)cc(OC)c1 (centres undefined)	849
COc1cccc(-c2csc(Nc3ccc(C)cn3)n2)c1	902
COc1cc2c(Nc3ccc(Br)cc3F)ncnc2cc1OCC1CCN(C)CC1	644
Cc1nc([C@H]2CCN(Cc3cc(Cl)ccc3F)C[C@H]2N(C)C)n[nH]1	567
CCCN1C(=O)C2(c3cc(Br)ccc31)c1[nH]c3ccccc3c1CCN2C(C)=O (centres undefined)	924
Cc1ccc(CN2CCC(CNC(=O)c3c(C)oc4nc(C)nc(N5CCOCC5)c34)CC2)cc1	629
CC(C)(C)C(=O)N1CCCC(C(=O)N2CCOCC2)C1 (centres undefined)	625
Cc1oc(-c2[nH]ncc2C(=O)N2CCOCC2)cc1S(=O)(=O)NC1CCCC1	645

---

- EXPERIMENT: gradient 5% acetonitrile 3 min, to 50% in 2 min, to 85% in 15 min, held 3 min, 100 µL/min
- ASSAY CONDITIONS: column: Zorbax Extend-C18 2.1 x 50 mm; eluents: water / acetonitrile, 0.1% formic acid
Consider the following compounds and their measured RP-LC retention time readings.
ASSAY ENDPOINT: RP-LC retention time (s)

COCCn1cc(CCNC(=O)Nc2ccc(Br)c(C)c2)c2cccnc21	821
COc1ccc(-c2nnc(-c3ccccc3Cl)o2)cc1S(=O)(=O)N1CCC(C)CC1	1150
CCCCn1cc(S(=O)(=O)NCc2cccc(F)c2)c2cccnc21	964
O=C(c1ccc(F)cc1)N1CCC(n2c(-c3ccco3)nc3cccnc32)C1 (stereo not given)	689
O=C(CCc1c(-c2ccc(F)cc2)nc2ccccn12)Nc1cccc(C(F)(F)F)c1	752

---

Consider the following compounds and their measured RP-LC retention time readings.
- EXPERIMENT: gradient 5% acetonitrile 3 min, to 50% in 2 min, to 85% in 15 min, held 3 min, 100 µL/min
- ASSAY CONDITIONS: column: Zorbax Extend-C18 2.1 x 50 mm; eluents: water / acetonitrile, 0.1% formic acid
ASSAY ENDPOINT: RP-LC retention time (s)

O=C(Nc1cccc(Br)c1)NC1CCN(c2ccc(F)cc2)C1=O (stereo not drawn)	818
CCNC(=O)N1CCCC(c2cccc(C(=O)NCc3ccc(C(F)(F)F)cc3)c2)C1 (stereo not drawn)	896
COc1ccc(CC(=O)N2CCCC2c2cc(C(C)C)no2)cc1 (stereo not drawn)	868
Cc1cc(=O)n(CC(=O)Nc2cc(F)ccc2F)c(-c2ccccc2)n1	1010
CC(C)c1noc(-c2cccnc2N2CCCN(Cc3cccc(C(F)(F)F)c3)CC2)n1	794
CCCN1C(=O)c2cc(C(=O)NCc3cccc(C)c3)nn2CC1(C)C(=O)NC1CCCC1 (stereo not drawn)	866
COCCN1C(=O)c2ccccc2C(C(=O)Nc2cc(C)ccn2)C12CCCCC2 (stereo not drawn)	745
CCNc1nc(C)cc(N2CCN(S(=O)(=O)c3ccc(OC)c(C)c3)CC2)n1	723
CC1=C(c2ccc(C)cc2)S(=O)(=O)N=C1N1CCCN(C(=O)c2ccccc2)CC1	837
O=C(Nc1ccccc1F)N1CC(c2nc(CCOCC3CC3)no2)C1	786
CCn1c(=O)sc2cc(S(=O)(=O)N3CCC(C(=O)Nc4cc(C)ccn4)CC3)ccc21	702
COCCN1C(=O)CCc2cc(NC(=O)c3ccco3)ccc21	654
Cn1c(CCc2cccc(NC(=O)C3CCN(S(=O)(=O)N4CCCC4)CC3)c2)nc2ccccc21	672
Cc1ncsc1CN1CCCC(c2nncn2-c2ccccc2)C1 (stereo not drawn)	496
Cc1cc(N2C=C(C(=O)N3CCOCC3)S(=O)(=O)c3ccccc32)ccc1Br	855
CNC(=O)N1CC2(CCCCC2)CC1COCc1ccccc1 (stereo not drawn)	1060
O=C(Nc1ccc2c(c1)OCCO2)c1cn2c(n1)COCC2	606
Cc1cccc(NC(=O)c2ccc(=O)n(Cc3ccc(F)cc3)n2)n1	800
Cn1nc(-c2nnc(-c3ccccc3Cl)o2)c2c1CCN(C(=O)c1ccc(F)c(F)c1)C2	877
CCc1cccc(NC(=O)Cn2nc(N3CCCC3)c3ccccc3c2=O)c1	1000
Cc1ccc(C2Cn3nnc(C(=O)N4CCC(C(=O)NC5CC5)CC4)c3CO2)cc1 (stereo not drawn)	733
O=c1ccc(-c2ccccc2Br)nn1Cc1nc(-c2ccc3c(c2)OCO3)no1	1040
N#Cc1ccccc1NC(=O)COc1ccc(Cl)cc1Cl	719
COc1ccc(N2CC(C(=O)N3CCC(C(=O)NC4CCS(=O)(=O)C4)CC3)CC2=O)cc1 (stereo not drawn)	603
Cn1nc(C(=O)N2CCCC(C(=O)N3CCCC3)C2)c2c1CCN(C(=O)c1ccccc1Cl)C2 (stereo not drawn)	662
Cc1cccc(N2CCN(c3cc(C(=O)O)c4cc(NC(=O)CC(C)C)ccc4n3)CC2)c1	710
O=C(NCc1cc(F)ccc1F)c1ccc2ncnc(N3CCCC3)c2c1	650
CCn1cnc(S(=O)(=O)N2CCCC(C(=O)NCc3cccc(C)c3)C2)c1 (stereo not drawn)	747
Cc1ccc2c(=O)c(C(=O)N3CCCC3)cn(CC(=O)NCc3ccc4c(c3)OCO4)c2n1	625
Cc1cccc(NC(=O)Cn2nc(N3CCSCC3)c3ccccc3c2=O)c1	961
COc1ccc(Nc2c(C(=O)N3CCCCC3C)cnc3nc(C)ccc23)cc1OC (stereo not drawn)	598
CCc1c(C2CCN(C(=O)NCCc3ccccc3)CC2)noc1N	732
CCC1CN2C=NC(N3CCN(C(=O)Nc4ccc(OC)c(Cl)c4)CC3)=CC2=N1 (stereo not drawn)	807
O=c1ccc(-c2cccc(Br)c2)nn1Cc1ccncc1	595
CC(=O)Nc1ccc(NC(=O)c2nc3ccccn3c2-c2ccc(Cl)cc2)cc1	855
CCN(CC)CCNC(=O)Cc1cc(-c2ccc(F)cc2F)on1	556
CCOC(=O)Cc1sc(Nc2nc3ccccc3s2)nc1-c1ccccc1	1170
CCOCC(=O)N1CC(c2nc(-c3cccnc3)no2)C2(CCOCC2)C1 (stereo not drawn)	622

// data source = the METLIN SMRT retention time set (Domingo-Almenara et al. 2019)
